In this section we review reported Pectinase % Rate Difference values for a set of molecules.
# Test system: Pectinase (EC 3.2.1.15)
# measurement.notes: Pectinase/Pectin reaction gas run (spectrophotometric, 400 nm)
# Type: biochemical, Aspergillus niger
# test.context: 35° C.; maximum effect, percent change compared to air
Hi! Could you send only the number? It should be in %, unit omitted.

Illustrative cases are given below, each with its answer.
[[record]]
molecule = "[Xe] [Xe, xenon]"
measurement_target = "Pectinase (EC 3.2.1.15)"
reported_property = "Pectinase % Rate Difference"
val = 15.0

[[record]]
molecule = "[Ar] [Ar, argon]"
measurement_target = "Pectinase (EC 3.2.1.15)"
reported_property = "Pectinase % Rate Difference"
val = 18.3

[[record]]
molecule = "[Kr] [Kr, krypton]"
measurement_target = "Pectinase (EC 3.2.1.15)"
reported_property = "Pectinase % Rate Difference"
val = 6.7


The measured Pectinase % Rate Difference that [Ne] [Ne, neon] showed for Pectinase (EC 3.2.1.15) is 3.3
